- target of assay: Aminopeptidase N (Plasmodium falciparum (isolate 3D7)) (UniProt O96935)
- Sequence (O96935 whole entry, looked up): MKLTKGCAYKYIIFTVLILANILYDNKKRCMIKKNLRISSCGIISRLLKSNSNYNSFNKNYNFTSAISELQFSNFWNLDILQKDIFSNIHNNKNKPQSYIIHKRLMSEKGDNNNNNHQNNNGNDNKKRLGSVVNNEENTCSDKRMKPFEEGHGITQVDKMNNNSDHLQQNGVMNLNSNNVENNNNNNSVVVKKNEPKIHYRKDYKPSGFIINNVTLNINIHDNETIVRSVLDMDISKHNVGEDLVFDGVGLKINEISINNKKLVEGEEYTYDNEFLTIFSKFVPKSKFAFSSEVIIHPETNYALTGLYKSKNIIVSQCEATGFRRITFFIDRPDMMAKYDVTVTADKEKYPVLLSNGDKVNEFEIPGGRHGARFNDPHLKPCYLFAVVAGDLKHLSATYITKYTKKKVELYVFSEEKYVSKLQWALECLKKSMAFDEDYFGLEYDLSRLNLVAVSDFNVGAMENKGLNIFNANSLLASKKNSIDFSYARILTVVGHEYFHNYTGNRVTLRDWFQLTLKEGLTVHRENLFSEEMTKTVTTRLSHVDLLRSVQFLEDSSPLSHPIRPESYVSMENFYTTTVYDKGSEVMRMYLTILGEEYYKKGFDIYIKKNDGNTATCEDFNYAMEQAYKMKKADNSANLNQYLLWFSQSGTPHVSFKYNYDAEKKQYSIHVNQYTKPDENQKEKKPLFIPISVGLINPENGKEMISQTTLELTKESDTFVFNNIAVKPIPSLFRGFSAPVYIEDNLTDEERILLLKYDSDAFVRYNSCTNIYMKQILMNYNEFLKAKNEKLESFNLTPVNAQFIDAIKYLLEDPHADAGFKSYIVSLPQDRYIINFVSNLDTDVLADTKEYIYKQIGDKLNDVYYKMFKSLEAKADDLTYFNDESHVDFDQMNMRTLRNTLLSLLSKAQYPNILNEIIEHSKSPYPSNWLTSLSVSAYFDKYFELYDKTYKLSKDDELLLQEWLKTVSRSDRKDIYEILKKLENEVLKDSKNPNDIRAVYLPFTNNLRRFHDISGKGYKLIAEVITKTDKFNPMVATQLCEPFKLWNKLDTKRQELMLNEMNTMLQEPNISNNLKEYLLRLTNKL
- experiment notes: malaria alanyl aminopeptidase activity blockers – biochemical, fluorogenic H-Leu-NHMec substrate, 1536-well (AID 1445);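 further: plate controls were DMSO full reaction for no effect and no enzyme background for full effect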
- condition: recombinant M1AAP, H-Leu-NHMec fluorogenic kinetic assay; at 30 µM, hits give high values unless noted
Out of some 220,000 compounds screened, about 910 (0.41%) were called active. This is one part of a sample in which actives are shown more often than they occur. Potency and affinity values are given separately.
property: inhibition

Sure, the documented inhibition for `Cc1ccc(-n2nnnc2SCC(=O)Nc2ccccc2-c2ccccc2)cc1C` is -2.36% (inactive)

Sure, the documented inhibition for `O=C(NCc1ccco1)c1ccc(Br)c(S(=O)(=O)N2CCCCC2)c1` is 3.95% (inactive)

Sure, the documented inhibition for `COc1ccc(C(=O)COc2ccc(F)cc2)c(O)c1C` is 0.41% (inactive)

Sure, the documented inhibition for `CC(=O)c1cccc(NC(=O)c2cc(-n3cnnc3)ccc2Cl)c1` is 6.6% (inactive)

Sure, the documented inhibition for `CCCCc1cc(=O)oc2cc(O)ccc12` is 31.7% (inactive)

Sure, the documented inhibition for `Cc1cc(C)nc(SCC(=O)Nc2ccc(S(=O)(=O)Nc3ncccn3)cc2)n1` is 3.26% (inactive)

Sure, the documented inhibition for `O=c1cc(CSc2nc3cc(Cl)ccc3o2)nc2sccn12` is 4.21% (inactive)

Sure, the documented inhibition for `Cc1ccc(NC(=O)N2CCC(C(=O)NCc3ccc(F)cc3)CC2)cc1` is 10.1% (inactive)

Sure, the documented inhibition for `CC(=O)Nc1ccc(S(=O)(=O)NNC2=NS(=O)(=O)c3ccccc32)cc1` is 5.01% (inactive)

Sure, the documented inhibition for `C/C(CC(=O)Nc1cccc(C(F)(F)F)c1)=N/NC(=O)C(=O)NCCO` is 8.99% (inactive)

Sure, the documented inhibition for `CC(C)(C)N1C(=O)c2ccccc2NC(=O)N1Cc1ccc(Br)cc1` is 2.07% (inactive)

Sure, the documented inhibition for CC1CN(C(=O)c2cc(S(=O)(=O)N3CCCC3)c(Cl)cc2Cl)CC(C)O1 (stereo not given) is -2.85% (inactive)

Sure, the documented inhibition for `COc1ccc(C(=O)/C=C/Nc2cccc(O)c2)cc1` is -6.48% (inactive)

Sure, the documented inhibition for `Cc1cc(C(=O)NCc2cccs2)nn1C` is 3.72% (inactive)

Sure, the documented inhibition for `Cc1ccc(C)c(NC2=NS(=O)(=O)c3ccccc32)c1` is 3.34% (inactive)

Sure, the documented inhibition for `O=C(CSc1nnc(-c2ccccc2)n1C1CCCCC1)Nc1ccc(S(=O)(=O)Nc2ccccn2)cc1` is 1.56% (inactive)

Sure, the documented inhibition for `O=C(CSc1nnc(-c2ccncc2)n1C1CCCCC1)Nc1ccccc1` is 0.45% (inactive)

Sure, the documented inhibition for `CC(C)C(=O)N(c1cc2sc(=O)oc2c2ccccc12)S(=O)(=O)c1cccs1` is 23.3% (active)

Sure, the documented inhibition for `Cc1ccc2nc(-c3ccc(SCC(=O)N4CCc5ccccc54)nc3)[nH]c2c1` is 4.65% (inactive)

Sure, the documented inhibition for `Cc1noc(NS(=O)(=O)c2ccc(NC(=O)CSc3ncccn3)cc2)c1C` is 1.83% (inactive)

Sure, the documented inhibition for `CCOc1ccc(C(=O)NC2CCN(C(=S)NCc3ccco3)CC2)cc1` is 11.3% (inactive)

Sure, the documented inhibition for `CCN(CC)S(=O)(=O)c1ccc2c(c1)nc(CCC(=O)OCC(=O)Nc1cc(Cl)cc(Cl)c1)n2C` is 0.35% (inactive)

Sure, the documented inhibition for `O=C(O)CCc1ccc(-c2ccccc2)n1NC(=O)c1ccco1` is 3.09% (inactive)

Sure, the documented inhibition for `O=C(O)CCc1ccc(-c2ccccc2)n1NC(=O)c1sc2ccccc2c1Cl` is 24.7% (active)

Sure, the documented inhibition for `C1CCN(c2nc3nonc3nc2NCC2CCOCC2)CC1` is 7.54% (inactive)

Sure, the documented inhibition for COc1ccc2c(CC(=O)NCC3CCC(C(=O)O)CC3)cc(=O)oc2c1 (stereo not given) is 3.73% (inactive)

Sure, the documented inhibition for `COC(=O)Cc1cc(=O)oc2cc(OC)ccc12` is 1.65% (inactive)

Sure, the documented inhibition for `O=C(O)CCc1ccc(-c2ccccc2)n1NC(=O)c1cccs1` is 6.72% (inactive)

Sure, the documented inhibition for `C=C(C)c1cccc(C(C)(C)NC(=O)Nc2cc(C)ccn2)c1` is 14.8% (inactive)

Sure, the documented inhibition for COC(=O)CSC1=C(C#N)C(c2ccc(F)cc2)CC(=O)N1 (stereo not given) is -0.52% (inactive)

Sure, the documented inhibition for `Cc1ccc(NC(=O)N2CCC(C(=O)NCc3ccccc3)CC2)cc1` is 26.3% (active)

Sure, the documented inhibition for `CC(C)C[C@H](NC(=O)c1nc[nH]c1C(=O)N1CCN(C(=O)OC(C)(C)C)CC1)C(=O)OC(C)(C)C` is 14.4% (inactive)

Sure, the documented inhibition for `O=c1cc(CN2CCN(S(=O)(=O)c3ccc4ccccc4c3)CC2)nc2sccn12` is -6.82% (inactive)

Sure, the documented inhibition for `O=C(CSc1nnnn1-c1cccc2ccccc12)NC(C(=O)O)(c1ccccc1)c1ccccc1` is 23.1% (inactive)

Sure, the documented inhibition for `O=S(=O)(NCc1ccccn1)c1cccc2nsnc12` is 3.36% (inactive)

###

For each record, write down the corresponding inhibition.
- target of assay: Aminopeptidase N (Plasmodium falciparum (isolate 3D7)) (UniProt O96935)
- experiment notes: malaria alanyl aminopeptidase activity blockers – biochemical, fluorogenic H-Leu-NHMec substrate, 1536-well (AID 1445);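 further: plate controls were DMSO full reaction for no effect and no enzyme background for full effect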
- condition: recombinant M1AAP, H-Leu-NHMec fluorogenic kinetic assay; at 30 µM, hits give high values unless noted
Out of some 220,000 compounds screened, about 910 (0.41%) were called active. The entries come from a sample that favours actives as a whole. Potency and affinity values are given separately.
Provide only the numeric value, understood in %.

Sure, the documented inhibition for `CCN(CC)CCN(C(=O)c1ccc(S(=O)(=O)N2CCCCC2)cc1)c1nc2cc3c(cc2s1)OCO3` is -2.92

Sure, the documented inhibition for `O=C(O)CSc1nc(-c2ccccc2)nc2c1oc1ccccc12` is 8.15

Sure, the documented inhibition for `O=C(CCCO)CCCCCCCCC[C@H]1N[C@H](CO)[C@@H](O)[C@@H]1O` is 7.45

Sure, the documented inhibition for CNC(=O)C1CC(=O)N(Cc2ccc3c(c2)OCO3)C(=Nc2ccc(F)cc2)S1 (centres undefined) is -5.29

Sure, the documented inhibition for `Cn1nc(-c2ccc(Cl)cc2)cc1NC(=O)CCCC(=O)O` is -1.87

Sure, the documented inhibition for `O=C(Cn1cnc([N+](=O)[O-])n1)N/N=C/c1ccc2ccccc2c1` is 10.2

Sure, the documented inhibition for `Cc1nc2cc(NC(=O)c3ccc(N4C(=O)CCC4=O)cc3)ccc2s1` is -5.53

Sure, the documented inhibition for `Cc1nnc(SCC(=O)NCCN2C(=O)CSC2=O)s1` is 2.17

Sure, the documented inhibition for `CC(C)CN(CCOc1cccc(N2C(=O)C3=C(CCCC3)C2=O)c1)CC(C)C` is 3.32

Sure, the documented inhibition for CCOc1ccc(N2CC(C(=O)Nc3ccc(S(=O)(=O)Nc4ncccn4)cc3)CC2=O)cc1 (centres undefined) is 20.6

Sure, the documented inhibition for `O=C(CCc1ccc(S(=O)(=O)N2CCOCC2)cc1)Nc1ccc(N2CCOCC2)cc1` is 3.54

Sure, the documented inhibition for `COCc1cc(C)n(CC(=O)Nc2ccc(Cl)cc2Cl)c(=O)c1C#N` is 10.9

Sure, the documented inhibition for `Nc1nonc1C(=O)N/N=C/c1ccc(-c2cccc(C(=O)O)c2)o1` is 16.9

Sure, the documented inhibition for `Cc1ccc(-c2ccc(/C=N\NC(=O)c3cc4c(ccc5ccccc54)o3)o2)cc1[N+](=O)[O-]` is 2.34

Sure, the documented inhibition for `CCCn1cc(S(=O)(=O)CC(=O)Nc2ccc(OC)cc2OC)c2ccccc21` is -0.94

Sure, the documented inhibition for `COCc1cc(C)nc(N/N=C/c2ccc(-c3ccc(C(=O)O)c(Cl)c3)o2)c1C#N` is 15.5

Sure, the documented inhibition for `OC1=C(O)c2nc3ccccc3nc21` is -5.83

Sure, the documented inhibition for Cc1ccc(C(c2nnnn2CCC(C)C)N2CCN(C)CC2)cc1 (centres undefined) is -0.91

Sure, the documented inhibition for `O=C(/C=C/c1cccc(Br)c1)N1CCN(c2ccccn2)CC1` is 12.4

###

- target of assay: Aminopeptidase N (Plasmodium falciparum (isolate 3D7))
- experiment notes: malaria alanyl aminopeptidase activity blockers – biochemical, fluorogenic H-Leu-NHMec substrate, 1536-well (AID 1445);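 further: plate controls were DMSO full reaction for no effect and no enzyme background for full effect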
- condition: recombinant M1AAP, H-Leu-NHMec fluorogenic kinetic assay; at 30 µM, hits give high values unless noted
Out of some 220,000 compounds screened, about 910 (0.41%) were called active. Shown is part of a subset that was picked to be rich in actives. Results with a measured potency or affinity are listed apart.
inhibition of 10% or higher: TRUE. Under 10%: FALSE.

q: Quick check, inhibition >= 10%? COc1ccc(CNC(=O)C(c2ccncc2)N(C(=O)Cc2cccs2)c2ccccc2C)cc1 (stereo not drawn)
a: FALSE

q: Quick check, inhibition >= 10%? `COc1cc([N+](=O)[O-])ccc1-c1ccc(/C=N/NC(N)=O)o1`
a: FALSE

q: Quick check, inhibition >= 10%? `CCc1ccc(NC(=O)CSc2nc3ccsc3c(=O)n2CCCCCC(=O)O)cc1`
a: FALSE

q: Quick check, inhibition >= 10%? `CCCCCCCC[n+]1cccc2c3ccccc3ccc21`
a: TRUE

q: Quick check, inhibition >= 10%? `O=C1c2cc(S(=O)(=O)NCCO)ccc2-c2ccc(S(=O)(=O)NCCO)cc21`
a: FALSE

q: Quick check, inhibition >= 10%? `CCCCCCCCC[n+]1cccc2c3ccccc3ccc21`
a: TRUE

q: Quick check, inhibition >= 10%? `CCSc1nnc2c(n1)OC1(CCCC1)Nc1ccccc1-2`
a: TRUE

q: Quick check, inhibition >= 10%? `CCC/C(O)=C1\C(=O)CCCC1=NCCc1ccc(OCC)c(OCC)c1`
a: FALSE
